So I've got a bunch of compounds here, and I need their melting point values.

Query string: For the compound shown here, COc1ccc(CC(=O)Nc2ccc(S(N)(=O)=O)cc2Cl)cc1Oc1cc(Cl)cc(C#N)c1 [Compound I-64] , give the reported melting point.
Result string: 186.3 to 189.7 °C

Query string: Now try CCc1ccc(CC(=O)Nc2ccccc2Cl)cc1Oc1cc(Cl)ccc1Cl [Compound I-21] .
Result string: 146.3 to 147.1 °C

Query string: Now try NS(=O)(=O)c1ccc(NC(=O)Cc2ccc(Cl)c(Cc3cc(Cl)ccc3Cl)c2)c(Cl)c1 [Compound I-209] .
Result string: 219.3 to 221.5 °C

Query string: Now try Cc1cc(N2CC[S+]([O-])CC2)ccc1NC(=O)Cc1ccc(C)c(Oc2cc(Cl)cc(C#N)c2)c1 [Compound I-160] .
Result string: 181.3 to 182.1 °C

Query string: Now try Cc1cc(OCCCS(N)(=O)=O)ccc1NC(=O)Cc1ccc(Cl)c(Oc2cc(Cl)ccc2Br)c1 [Compound I-3] .
Result string: 190.1 to 192.2 °C

Query string: Now try N#Cc1cc(Oc2c(Cl)ccc(CC(=O)Nc3ccccc3Cl)c2F)cc(C(F)F)c1 [Compound I-14] .
Result string: 169.5 to 171 °C

Query string: Now try Cc1ccc(CC(=O)Nc2ncccc2C)cc1Oc1cc(Cl)cc(C#N)c1 [Compound I-225] .
Result string: 137.9 to 138.8 °C

Query string: Now try COc1ccc(CC(=O)Nc2ccc(S(N)(=O)=O)cc2Cl)c(F)c1Oc1cc(Cl)cc(C#N)c1 [Compound I-190] .
Result string: 212 to 212.8 °C

Query string: Now try CC(=O)Nc1cc(C)c(NC(=O)Cc2ccc(C)c(Oc3cc(Cl)cc(C#N)c3)c2)cn1 [Compound I-228] .
Result string: 222.5 to 224 °C

Query string: Now try COc1cc(CC(=O)Nc2ccc(S(N)(=O)=O)cc2)cc(Oc2cc(Cl)cc(C#N)c2)c1 [Compound I-132] .
Result string: 184.1 to 185.5 °C

Query string: Now try COc1ccc(CC(=O)Nc2ccc(S(N)(=O)=O)cc2Cl)cc1Oc1cc(C#N)ccc1Cl [Compound I-67] .
Result string: 214.6 to 216.4 °C

Query string: Now try COc1ccc(CC(=O)Nc2ccc(S(N)(=O)=O)cc2C)cc1Oc1cc(C#N)cc(C(F)F)c1 [Compound I-93] .
Result string: 175 to 177.2 °C

Query string: Now try `CCC(=O)NS(=O)(=O)c1ccc(NC(=O)Cc2ccc(C)c(Oc3cc(Cl)cc(C#N)c3)c2F)c(Cl)c1.[Na]` .
Result string: 158.8 to 162 °C

Query string: Now try Cc1cc(C#N)cc(C)c1Oc1cc(CC(=O)Nc2ccc(S(N)(=O)=O)cc2)ccc1Cl [Compound I-55] .
Result string: 227.3 to 231.4 °C

Query string: Now try Cc1cc(S(N)(=O)=O)ccc1NC(=O)Cc1ccc(Br)c(Oc2cc(C#N)cc(C(F)F)c2)c1F [Compound I-169] .
Result string: 223.9 to 225 °C

Query string: Now try Cc1cc(S(N)(=O)=O)ccc1NC(=O)Cc1ccc(Cl)c(Oc2cc(C#N)cc(C(F)(F)F)c2)c1F [Compound I-120] .
Result string: 212 to 216.1 °C

Query string: Now try Cc1cc(N2CCCCS2(=O)=O)ccc1NC(=O)Cc1ccc(C)c(Oc2cc(Cl)cc(C#N)c2)c1 [Compound I-158] .
Result string: 84.3 to 85.6 °C

Query string: Now try COc1ccc(CC(=O)Nc2ccccc2)cc1Oc1cc(Cl)cc(C#N)c1 [Compound I-210] .
Result string: 171.3 to 171.6 °C

Query string: Now try CCc1cc(CC(=O)Nc2ccc(S(N)(=O)=O)cc2C)cc(Oc2cc(C#N)ccc2Cl)c1 [Compound I-106] .
Result string: 231.6 to 233.1 °C

Query string: Now try Cc1cc(S(N)(=O)=O)ccc1NC(=O)Cc1ccc(Cl)c(Oc2cc(C#N)cc(C(C)(F)F)c2)c1F [Compound I-96] .
Result string: 198.5 to 201 °C

Query string: Now try COc1ccc(CC(=O)Nc2ccc(S(N)(=O)=O)cc2Cl)cc1Oc1cc(C#N)cc(C(F)F)c1 [Compound I-94] .
Result string: 185 to 187.9 °C

Query string: Now try Cc1cc(CC(=O)Nc2ccccc2Cl)cc(C(=O)c2cc(Cl)cc(Cl)c2)c1 [Compound I-231] .
Result string: 142 to 146.2 °C

Query string: Now try Cc1cc(S(N)(=O)=O)ccc1NC(=O)Cc1ccc(Cl)c(Oc2cc(C#N)cc(C#CCN(C)C)c2)c1F [Compound I-187] .
Result string: 156.2 to 158.2 °C

Query string: Now try N#Cc1cc(Oc2c(F)c(CC(=O)Nc3ccc(S(N)(=O)=O)cc3)cc(Br)c2Br)cc(C(F)F)c1 [Compound I-114] .
Result string: 144 to 147 °C

Query string: Now try N#Cc1cc(Oc2cc(CC(=O)Nc3ccc(S(N)(=O)=O)cc3Cl)ccc2Cl)cc(C(F)(F)F)c1 [Compound I-90] .
Result string: 198 to 202 °C

Query string: Now try CNS(=O)(=O)c1ccc(NC(=O)Cc2ccc(Cl)c(Oc3cc(Cl)cc(C#N)c3)c2F)c(Cl)c1 [Compound I-168] .
Result string: 199.1 to 200 °C

Query string: Now try CCc1ccc(CC(=O)Nc2ccccc2Cl)cc1Oc1cc(Cl)ccc1C#N [Compound I-18] .
Result string: 168 to 169.9 °C

Query string: Now try Cc1cc(OC[C@@H](O)CO)ccc1NC(=O)Cc1ccc(C)c(Oc2cc(Cl)cc(C#N)c2)c1 [Compound I-150] .
Result string: 137.5 to 138.4 °C

Query string: Now try `CC(C)CC(=O)NS(=O)(=O)c1ccc(NC(=O)Cc2ccc(Cl)c(Oc3cc(Cl)cc(C#N)c3)c2F)c(Cl)c1.[Na]` .
Result string: 159.3 to 163.4 °C

Query string: Now try Cc1cc(NS(C)(=O)=O)ccc1NC(=O)Cc1ccc(C)c(Oc2cc(Cl)cc(C#N)c2)c1 [Compound I-237] .
Result string: 180 to 181.4 °C

----------
So I've got a bunch of compounds here, and I need their melting point values.

Query string: For the compound shown here, NS(=O)(=O)c1ccc(NC(=O)Cc2ccc(Cl)c(Sc3cc(Cl)ccc3Br)c2)cc1 [Compound I-243] , give the reported melting point.
Result string: 220 to 222.3 °C

Query string: Now try Cc1cc(S(N)(=O)=O)ccc1NC(=O)Cc1ccc(C)c(Oc2cc(Cl)ccc2Br)c1 [Compound I-31] .
Result string: 200.5 to 203.5 °C

Query string: Now try N#Cc1cc(Cl)cc(Oc2c(Cl)ccc(CC(=O)Nc3ccc(S(N)(=O)=O)cc3Cl)c2F)c1 [Compound I-100] .
Result string: 234.4 to 234.9 °C

Query string: Now try CC(C)c1ccc(CC(=O)Nc2ccccc2Cl)cc1Oc1cc(Cl)ccc1Br [Compound I-27] .
Result string: 142.9 to 143.6 °C

Query string: Now try COc1cc(CC(=O)Nc2ccc(S(N)(=O)=O)cc2C)cc(Oc2cc(Cl)cc(C#N)c2)c1 [Compound I-133] .
Result string: 169.9 to 171.1 °C

Query string: Now try COc1ccc(CC(=O)Nc2ccc(S(N)(=O)=O)cc2)cc1Oc1cc(Cl)cc(C#N)c1 [Compound I-57] .
Result string: 218.3 to 221.4 °C

Query string: Now try COc1cc(CC(=O)Nc2ccc(S(N)(=O)=O)cc2Cl)cc(Oc2cc(Cl)cc(C#N)c2)c1 [Compound I-136] .
Result string: 159 to 161.1 °C

Query string: Now try Cc1cc(NC(=O)Cc2ccc(C)c(Oc3cc(Cl)cc(C#N)c3)c2)n(C)n1 [Compound I-226] .
Result string: 155.6 to 159 °C

----------
QUANTITY_NAME: melting point

Query string: For the compound shown here, `CC(F)(F)c1cc(C#N)cc(Oc2c(Cl)ccc(CC(=O)Nc3ccc(S(N)(=O)=O)cc3)c2F)c1` , give the reported melting point.
Result string: 207 to 209.8 °C

Query string: Now try `CCc1ccc(CC(=O)Nc2ccc(S(N)(=O)=O)cc2)cc1Oc1c(Cl)cccc1Cl` .
Result string: 222.5 to 225 °C

Query string: Now try `N#Cc1cc(Cl)cc(Oc2c(Cl)ccc(CC(=O)Nc3ccc(S(=O)(=O)NC(=O)CCC(=O)O)cc3Cl)c2F)c1` .
Result string: 143.4 to 144 °C

Query string: Now try `Cc1ccc(CC(=O)Nc2ccc(C(=O)O)cc2Cl)c(F)c1Oc1cc(C#N)cc(C(F)F)c1` .
Result string: 216.9 to 218.3 °C
